Test system: PC-3
Test: NCI tumour cell line growth inhibition, 48 h
The source made the active and inactive calls. Rule as the data show it: active = GI50 up to about 1.1 µM and inactive = higher.
I'd appreciate it if you could supply GI50 values for the items below.

Consider the worked cases shown below.
>>> reading("CN1C(=O)C(=CNc2ccc(Cl)cc2Cl)C(=O)N(C)C1=O")
"> 100 µM (inactive)"
>>> reading("Cc1nn(-c2ccccc2)c(C)c1/C=N/N=C1\\SCC(=O)N1c1ccccc1")
"19.2 µM (inactive)"
>>> reading("Clc1ccc(NCc2nnc(COc3ccc(OCc4nnc(CNc5ccc(Cl)cc5)o4)c(Cl)c3)o2)cc1")
"24 µM (inactive)"
>>> reading("COc1ccc(-c2[nH]c3c4c(nc5c(c24)C(=O)CC(C)(C)C5)CC(C)(C)C3)cc1")
"24.3 µM (inactive)"
>>> reading("CN(C)c1ccc(/N=C2/NC(=N\\c3ccccc3)/C(=N/c3ccccc3)S2)cc1")
"> 100 µM (inactive)"

Hello, I would appreciate it if you could give GI50 for each entry below.
1. COc1cc(Nc2nc3ccc(C(F)(F)F)cc3nc2C(=O)O)cc(OC)c1OC
2. CC1CN=C(N(C(=O)Nc2ccccc2)c2ccc(Cl)c(Cl)c2)S1 (stereo not given)
3. Cc1cc(C)n(-c2nc(-n3nc(C)cc3C)nc(-n3nc(C)cc3C)n2)n1
4. O=[N+]([O-])c1ccc(N/N=C2\C=CCCC2)c([N+](=O)[O-])c1
5. CC1CNC(NS(=O)(=O)c2cc(C(=O)Nc3ccc(F)cc3)c(Cl)cc2S)=NN1 (stereo not given)

A)
1: 24.4 µM (inactive); 2: 26.8 µM (inactive); 3: > 100 µM (inactive); 4: > 100 µM (inactive); 5: 30.3 µM (inactive)

---

System: U-251
Assay: NCI tumour cell line growth inhibition, 48 h
Calls of active or inactive are those of the source. Cut-off read from the data, not from the text of the source: active = GI50 up to about 1.1 µM and inactive = higher.
MEASURED_ENDPOINT: GI50

>>> reading("COc1ccc2[nH]c3ccc4cc[n+](CCN5CCC(C6CCN(CC[n+]7ccc8ccc9[nH]c%10ccc(OC)cc%10c9c8c7)CC6)CC5)cc4c3c2c1")
"4.67 µM (inactive)"
>>> reading("CCOC(=O)/C([O-])=C(\\C(=O)OCC)[n+]1c(C)n(C)c2ccccc21")
"> 100 µM (inactive)"
>>> reading("CCOC(=O)/C=C/c1cccc(F)c1")
"> 100 µM (inactive)"
>>> reading("O=[N+]([O-])c1ccc(C(O)/C(=N/O)c2nc3ccc(Cl)cc3nc2O)cc1 (centres undefined)")
"> 100 µM (inactive)"
>>> reading("CCC(=O)NCCc1c[nH]c2ccc(OC)cc12")
"> 100 µM (inactive)"

Hello, I would appreciate it if you could give GI50 for each entry below.
1. CCOC(=O)c1ccc(N[C@@H]2c3cc4c(cc3C(c3cc(OC)c(O)c(OC)c3)[C@H]3C(=O)OCC32)OCO4)cc1O (some centres undefined)
2. Cc1sc(Nc2ccc(Nc3nc(-c4ccccc4)c(C)s3)cc2)nc1-c1ccccc1
3. O=C(/C=C(\O)c1cc(-c2ccccc2)n(-c2ccccc2)n1)c1ccccc1
4. CCCCc1c(O)nc(Nc2nc3ccccc3[nH]2)[nH]c1=O

A)
0.92 µM (active)
13.7 µM (inactive)
2.84 µM (inactive)
69.7 µM (inactive)

---

System: DU-145
Assay: NCI tumour cell line growth inhibition, 48 h
The source made the active and inactive calls. Cut-off read from the data, not from the text of the source: active = GI50 up to about 1.1 µM and inactive = higher.
Outcome field: choose from active, inactive

Known results for compounds:
>>> class("C#CCn1c(=O)c(C)cn(/C(=C\\C(=O)OCC)C(=O)OCC)c1=O")
"inactive"
>>> class("O=C(/C=C(\\O)c1cc(-c2ccccc2)n(-c2ccccc2)n1)c1ccccc1")
"inactive"
>>> class("Cc1ccccc1/N=N/c1cc(C)c(/N=N/c2c(O)ccc3ccccc23)cc1C")
"inactive"
>>> class("CC12CC(C/C1=N/O)C(C)(C)C2 (stereo unspecified)")
"inactive"

Q) Hey, what did the test say about CNC(=O)OCc1c2ccncc2c(C)c2c1[nH]c1ccccc12 ?
A) active

Q) Hey, what did the test say about COc1nc2ncc([C@@H](OC(C)=O)[C@@H](COC(C)=O)OC(C)=O)nc2c(=O)[nH]1 ?
A) inactive

---

I'd appreciate it if you could supply GI50 values for the items below.
System: MDA-N
Assay: NCI tumour cell line growth inhibition, 48 h
The source made the active and inactive calls. Cut-off read from the data, not from the text of the source: active = GI50 up to about 1.1 µM and inactive = higher.

Consider the worked cases shown below.
>>> reading("CC(=O)OCCn1c(Cc2ccc([N+](=O)[O-])cc2)nn(C(C)=O)c1=O")
"> 100 µM (inactive)"
>>> reading("O=C1CCC(=O)N1n1c(Cc2ccccc2)n[nH]c1=O")
"> 100 µM (inactive)"
>>> reading("C[C@]12C(=O)C=CCC1=CC[C@@H]1[C@@H]2[C@H]2CC3(O)C(=O)O[C@@]4(C)[C@H]5C[C@@]6(C)[C@@H]7[C@@]2(O)[C@]1(OC[C@H]6C(=O)O5)O[C@]734 (some centres undefined)")
"37.9 µM (inactive)"
>>> reading("COc1cc(/C=C2\\CCC(C)c3c2nc(N)c(C#N)c3-c2cc(OC)c(OC)c(OC)c2)cc(OC)c1OC (centres undefined)")
"> 100 µM (inactive)"
>>> reading("O=C(CCc1ccc(O)c(O)c1)NCCc1ccccc1")
"19 µM (inactive)"
>>> reading("CC(=O)n1nc(-c2ccccc2)n(/N=C/c2ccc([N+](=O)[O-])o2)c1=O")
"1.81 µM (inactive)"
>>> reading("Cc1ccc(-c2n[nH]c(=O)n2/N=C\\c2ccccc2O)cc1")
"> 100 µM (inactive)"
>>> reading("COc1ccc(C)cc1NC(=S)N/N=C/c1ccco1")
"18.6 µM (inactive)"

Q) Give MDA-N GI50 for COc1cc(Nc2nc3ccc(C(F)(F)F)cc3nc2C(=O)O)cc(OC)c1OC
A) 19.3 µM (inactive)

---

Test system: IGROV-1
Assay: NCI tumour cell line growth inhibition, 48 h
Activity calls are given as the source filed them. Cut-off read from the data, not from the text of the source: active = GI50 up to about 1.1 µM and inactive = higher.
MEASURED_ENDPOINT: GI50

Consider the worked cases shown below.
>>> reading("CC1CNC(NS(=O)(=O)c2cc(C(=O)Nc3ccc(F)cc3)c(Cl)cc2S)=NN1 (stereo not given)")
"71 µM (inactive)"
>>> reading("COC(=O)CCSC1=CC(=O)c2nc3ccccc3c3ccnc1c23")
"16.7 µM (inactive)"
>>> reading("CC1(C)CCC2(C(=O)O)C(O)CC3(C)C(=CCC4C5(C)CCC(OC6OCC(O)C(O)C6OC6OCC(O)C(O)C6OC6OCC(O)C(OC7OC(CO)C(O)C(O)C7O)C6O)C(C)(C)C5CCC43C)C2C1 (stereo not given)")
"> 100 µM (inactive)"
>>> reading("N#CC(NCc1cccc(CNC(C#N)c2ccccc2)c1)c1ccccc1 (stereo not given)")
"18.1 µM (inactive)"

Here is another compound to look at.
Q) Look up GI50: CO[C@@H]1[C@@H](OC2OC(C)C(OC3CC(C)(O)C(OC(=O)CC(C)C)C(C)O3)C(N(C)C)C2O)[C@@H](CC=O)C[C@@H](C)C(=O)/C=C/C2O[C@H]2C[C@@H](C)OC(=O)C[C@H]1OC(C)=O (stereo not given in full)
A) 10.8 µM (inactive)

---

I'd appreciate it if you could supply GI50 values for the items below.
Test system: NCI/ADR-RES
Assay: NCI tumour cell line growth inhibition, 48 h
The source made the active and inactive calls. Rule as the data show it: active = GI50 up to about 1.1 µM and inactive = higher.

Consider the worked cases shown below.
>>> reading("CC1(C)S[C@@H]2[C@H](NC(=O)[C@H](N)c3ccccc3)C(=O)N2[C@H]1C(=O)O [AMPICILLIN]")
"> 100 µM (inactive)"
>>> reading("Cc1ccc(S(=O)(=O)N2CCCN(S(=O)(=O)c3ccc(C)cc3)CCN(S(=O)(=O)c3ccc(C)cc3)CCCSCC2)cc1")
"> 100 µM (inactive)"
>>> reading("CCCCC(C)C1CCC2(C)C=CC(=O)C(C)=C2C1O (stereo unspecified)")
"> 100 µM (inactive)"
>>> reading("Cc1ccc(-c2nc(-c3cnccn3)n(C3OC(CO)C(O)C(O)C3O)n2)cc1 (stereo unspecified)")
"> 100 µM (inactive)"
>>> reading("Cc1sc2nc(N(C)C)oc(=O)c2c1C")
"70 µM (inactive)"

Q) Look up GI50: CCOC(CNc1nn2c(C)nnc2s1)OCC
A) > 100 µM (inactive)

---

I'd appreciate it if you could supply GI50 values for the items below.
Tested on: SK-MEL-2
Test: NCI tumour cell line growth inhibition, 48 h
Activity calls are given as the source filed them. Rule as the data show it: active = GI50 up to about 1.1 µM and inactive = higher.

>>> reading("CC(=O)NC1C(OCc2ccccc2)OC(CO)C(O)C1OCC(=O)N1CCCC1C(=O)N[C@@H](CCC(=O)NCCCCNc1c2ccccc2nc2cccc([N+](=O)[O-])c12)C(N)=O (some centres undefined)")
"15.4 µM (inactive)"
>>> reading("CC1(C)S[C@@H]2[C@H](NC(=O)[C@H](N)c3ccccc3)C(=O)N2[C@H]1C(=O)O")
"> 100 µM (inactive)"

Hello, I would appreciate it if you could give GI50 for each entry below.
1. O=[N+]([O-])c1ccc(C(O)/C(=N/O)c2nc3ccc(Cl)cc3nc2O)cc1 (centres undefined)
2. COC(=O)c1c(OC(C)=O)ccc2c1c1c(n2Cc2ccccc2)C(=O)c2ccccc2C1=O
3. C=CCCC1CCCNC1=S (centres undefined)
4. COC(=O)[C@H]1CO[C@H]2C/C(C)=C/CC/C(C)=C/CC[C@@]3(C)O[C@@H]3C[C@H]21
5. CCOC(=O)c1[nH]c2nc(SC)nc(Nc3ccccc3Cl)c2c1N

A)
> 100 µM (inactive)
18.7 µM (inactive)
> 100 µM (inactive)
18 µM (inactive)
29 µM (inactive)

Hello, I would appreciate it if you could give GI50 for each entry below.
1. O=C1C2=C(c3ccccc31)C(c1ccc(Cl)cc1)NC(S)=N2 (centres undefined)
2. CSC(SC)(C(=O)O)c1cc(-c2c(Cl)cccc2Cl)no1

A)
1: 23.3 µM (inactive); 2: 26.3 µM (inactive)
